Values compiled from patent US4147767A.

System: L-676 mouse embryo fibroblasts
Experiment: Mouse L-Cell growth inhibition test
Format: cell-based
Details: 1 microgram drug/ml, 72 hours

- COMPOUND: "COc1cc2c(c(OC)c1OC)-c1ccc(OC)c(=O)cc1[C@@H](NC(C)=O)CC2 [Colchicine]"
  % L-Cell Inhibition [%]: 91
- COMPOUND: "NC(=O)NO [Hydroxyurea]"
  % L-Cell Inhibition [%]: 0
- COMPOUND: "Nc1nc2nc[nH]c2c(=S)[nH]1 [6-Thioguanine]"
  % L-Cell Inhibition [%]: 65
- COMPOUND: "O=C(O)CCCc1ccc(N(CCCl)CCCl)cc1 [Chlorambucil]"
  % L-Cell Inhibition [%]: 0
- COMPOUND: "CC(=O)OCC(=O)[C@@]1(O)CC[C@H]2[C@@H]3CCC4=CC(=O)CC[C@]4(C)[C@H]3[C@@H](O)C[C@@]21C [Hydrocortisone Acetate]"
  % L-Cell Inhibition [%]: 0
- COMPOUND: "O=c1[nH]cc(F)c(=O)[nH]1 [Pure 5-fluorouracil, 5-fluorouracil]"
  % L-Cell Inhibition [%]: 67
